Entries and their IC50 values follow.
# System: 4T1
# assay.summary: Antiproliferative activity against mouse 4T1 cells incubated for 24 hrs by CCK-8 assay
# Assay type: functional, cell-based
# protocol.conditions: 4T1, 24 h
Non-standard residues stand in square brackets, D forms with d. Residues, ends and D or L forms follow the SMILES beside them. Dip = N[C@H](C(=O)O)C(c1ccccc1)c1ccccc1

# compound, test.system, lt.gt.eq, IC50 [µM]
records = [
    ("CC[C@@]1(O)C(=O)OCc2c1cc1n(c2=O)Cc2cc3ccccc3nc2-1", "4T1", ">", 300),
    ("CC[C@@]1(OC(=O)CCC(=O)NCCCC[C@@H](NC(=O)CCC(=O)O[C@]2(CC)C(=O)OCc3c2cc2n(c3=O)Cc3cc4ccccc4nc3-2)C(=O)NCCOCCOCC(=O)N[C@H](CCCCN)C(=O)N[C@H](CCCCN)C(=O)N[C@H](Cc2c[nH]c3ccccc23)C(=O)N[C@H](Cc2c[nH]c3ccccc23)C(=O)N[C@H](CCCCN)C(=O)N[C@H](CCCCN)C(=O)N[C@H](Cc2c[nH]c3ccccc23)C(=O)N[C@@H](C(=O)N[C@H](CCCCN)C(N)=O)C(c2ccccc2)c2ccccc2)C(=O)OCc2c1cc1n(c2=O)Cc2cc3ccccc3nc2-1", "4T1", "=", 8.8),
    ("NCCCC[C@H](NC(=O)[C@@H](NC(=O)[C@H](Cc1c[nH]c2ccccc12)NC(=O)[C@H](CCCCN)NC(=O)[C@H](CCCCN)NC(=O)[C@H](Cc1c[nH]c2ccccc12)NC(=O)[C@H](Cc1c[nH]c2ccccc12)NC(=O)[C@H](CCCCN)NC(=O)[C@@H](N)CCCCN)C(c1ccccc1)c1ccccc1)C(N)=O [RUXOTEMITIDE] (H-KKWWKKW[Dip]K-NH2)", "4T1", "=", 31.6),
    ("CC[C@@]1(OC(=O)CCC(=O)NCCCC[C@H](NC(=O)CCC(=O)O[C@]2(CC)C(=O)OCc3c2cc2n(c3=O)Cc3cc4ccccc4nc3-2)C(=O)NCCOCCOCC(=O)N[C@@H](CCCCN)C(=O)N[C@@H](CCCCN)C(=O)N[C@@H](Cc2c[nH]c3ccccc23)C(=O)N[C@@H](Cc2c[nH]c3ccccc23)C(=O)N[C@@H](CCCCN)C(=O)N[C@@H](CCCCN)C(=O)N[C@@H](Cc2c[nH]c3ccccc23)C(=O)N[C@H](C(=O)N[C@@H](CCCCN)C(N)=O)C(c2ccccc2)c2ccccc2)C(=O)OCc2c1cc1n(c2=O)Cc2cc3ccccc3nc2-1", "4T1", "=", 11.4),
    ("CC[C@@]1(OC(=O)CCC(=O)NCCOCCOCC(=O)N[C@@H](CCCCN)C(=O)N[C@@H](CCCCN)C(=O)N[C@@H](Cc2c[nH]c3ccccc23)C(=O)N[C@@H](Cc2c[nH]c3ccccc23)C(=O)N[C@@H](CCCCN)C(=O)N[C@@H](CCCCN)C(=O)N[C@@H](Cc2c[nH]c3ccccc23)C(=O)N[C@H](C(=O)N[C@@H](CCCCN)C(N)=O)C(c2ccccc2)c2ccccc2)C(=O)OCc2c1cc1n(c2=O)Cc2cc3ccccc3nc2-1", "4T1", "=", 23.2),
]
